Every entry's value here was drawn from ChEMBL document CHEMBL1149503.

Tested system: Voltage-dependent T-type calcium channel subunit alpha-1G (Homo sapiens)
Experiment notes: Inhibition of T type calcium channel subunit alpha-1G at 10 uM in HEK293 cells
Type: cell-based
Endpoint label: inhibition (%)

Here's what some known entries look like.
[[record]]
compound = "CCN1C(N(C)C)=Nc2ccccc2C1CC(=O)NCc1ccc(NS(=O)(=O)c2ccc(C)cc2)cc1 (stereo not given)"
tested_system = "Voltage-dependent T-type calcium channel subunit alpha-1G (Homo sapiens)"
endpoint_unit = "%"
numeric_result = 81.3

[[record]]
compound = "CCN1C(N2CCCCC2)=Nc2ccccc2C1CC(=O)NCc1ccccc1 (stereo not given)"
tested_system = "Voltage-dependent T-type calcium channel subunit alpha-1G (Homo sapiens)"
endpoint_unit = "%"
numeric_result = 59.3


I = CCN1C(N(C)C)=Nc2ccccc2C1CC(=O)NCc1ccc(NS(=O)(=O)c2ccc(F)cc2)cc1 (stereo not given)
II = CCN1C(N2CCCCC2)=Nc2ccccc2C1CC(=O)NCc1ccc(NS(=O)(=O)c2ccc(C)cc2)cc1 (stereo not given)
III = CCN1C(N(C)C)=Nc2ccccc2C1CC(=O)NCc1ccccc1 (stereo not given)
Returns the items ordered by inhibition, from maximum to minimum. Hello, could you send the labels back in the order asked? Thank you. II, I, III
